target: muscarinic receptors (rat cerebral cortex); assay type: binding, Hooded Lister rats; settings: 0.27 nM 3H-QNB, 37° C., 30 min
pIC50: −log10 of the molar value. Counter-ions that a name gives are not always drawn.
pIC50 values by entry
parameter-measured: pIC50

[
  {
    "molecule": "NC(=O)O[C@@H]1C[C@H]2CCCN(C2)C1 (relative stereo) [E3, hydrochloride]",
    "observed": 4.44
  },
  {
    "molecule": "COC(=O)[C@@H]1C[C@H]2CCN(C2)C1 (relative stereo) [E15, hydrochloride]",
    "observed": 4.96
  },
  {
    "molecule": "COC(=O)[C@@H]1C[C@H]2CCCN(C2)C1 (relative stereo)",
    "observed": 5.41
  },
  {
    "molecule": "COC(=O)C1=CC2CCCN(C1)C2 (racemic) [E8, hydrochloride]",
    "observed": 5.39
  },
  {
    "molecule": "CCOC(=O)[C@@H]1C[C@H]2CCCN(C2)C1 (relative stereo) [E25, oxalate salt]",
    "observed": 6.21
  },
  {
    "molecule": "CCO[C@H]1CN2CC[C@H]1C2 (relative stereo) [E13, oxalate salt]",
    "observed": 4.27
  },
  {
    "molecule": "CO[C@@H]1C[C@H]2CCCN(C2)C1 (relative stereo) [E22, oxalate salt]",
    "observed": 3.77
  },
  {
    "molecule": "CC(=O)O[C@@H]1C[C@H]2CCCN(C2)C1 (relative stereo) [E1, acetate hydrochloride]",
    "observed": 5.41
  },
  {
    "molecule": "CC(=O)O[C@H]1CN2CCC[C@H]1C2 (relative stereo) [E6, acetate hydrochloride]",
    "observed": 4.57
  },
  {
    "molecule": "CCC(=O)O[C@@H]1C[C@H]2CCCN(C2)C1 (relative stereo) [E21, hydrochloride salt]",
    "observed": 6.00
  },
  {
    "molecule": "CCCO[C@H]1CN2CCC[C@H]1C2 (relative stereo) [E18, hydrochloride]",
    "observed": 4.81
  },
  {
    "molecule": "CC(=O)O[C@H]1CN2CC[C@H]1C2 (relative stereo) [E12, acetate oxalate salt]",
    "observed": 4.34
  },
  {
    "molecule": "COC(=O)[C@H]1CN2CCC[C@H]1C2 (relative stereo) [E7, hydrochloride]",
    "observed": 4.19
  },
  {
    "molecule": "CNC(=O)O[C@H]1CN2CCC[C@H]1C2 (relative stereo) [E20, oxalate salt]",
    "observed": 4.38
  },
  {
    "molecule": "CCO[C@H]1CN2CCC[C@H]1C2 (relative stereo) [E19, hydrochloride]",
    "observed": 4.19
  },
  {
    "molecule": "C#CCOC(=O)[C@@H]1C[C@H]2CCCN(C2)C1 (relative stereo)",
    "observed": 6.29
  },
  {
    "molecule": "COC(=O)[C@H]1CN2CC[C@H]1C2 (relative stereo) [E16, oxalate salt]",
    "observed": 4.22
  },
  {
    "molecule": "CCC(=O)O[C@H]1CN2CCC[C@H]1C2 (relative stereo) [E17, hydrochloride]",
    "observed": 5.14
  },
  {
    "molecule": "CCCO[C@@H]1C[C@H]2CCCN(C2)C1 (relative stereo) [E23, oxalate salt]",
    "observed": 5.92
  },
  {
    "molecule": "CCO[C@@H]1C[C@H]2CCCN(C2)C1 (relative stereo) [E2]",
    "observed": 5.19
  },
  {
    "molecule": "CNC(=O)O[C@@H]1C[C@H]2CCCN(C2)C1 (relative stereo) [E11, hydrochloride salt]",
    "observed": 5.28
  },
  {
    "molecule": "COC[C@@H]1C[C@H]2CCCN(C2)C1 (relative stereo) [E9, oxalate salt]",
    "observed": 4.42
  },
  {
    "molecule": "CN(C)C(=O)O[C@@H]1C[C@H]2CCCN(C2)C1 (relative stereo) [E24, hydrochloride]",
    "observed": 5.74
  },
  {
    "molecule": "CC(=O)O[C@@H]1C[C@H]2CCN(C2)C1 (relative stereo) [E14, acetate hydrochloride salt]",
    "observed": 4.85
  },
  {
    "molecule": "COC(=O)[C@@H]1C[C@H]2CCCCN(C2)C1 (relative stereo)",
    "observed": 5.49
  }
]

* * *

molecular target: muscarinic receptors (rat cerebral cortex); assay: Radio ligand binding: displacement of the muscarinic agonist 3H-OXO-M (3H-Oxotremorine-M); design: species or system Hooded Lister rats; settings: 2 nM 3H-OXO-M, 2 mM magnesium chloride, 37° C., 30 min
Where a name gives a salt, the structure may show the parent alone.

[
  {
    "molecule": "CCO[C@H]1CN2CCC[C@H]1C2 (relative stereo) [E19, hydrochloride]",
    "measure-unit": "µM",
    "IC50": 0.46
  },
  {
    "molecule": "CC(=O)O[C@@H]1C[C@H]2CCN(C2)C1 (relative stereo) [E14, acetate hydrochloride salt]",
    "measure-unit": "µM",
    "IC50": 0.038
  },
  {
    "molecule": "CCCO[C@H]1CN2CCC[C@H]1C2 (relative stereo) [E18, hydrochloride]",
    "measure-unit": "µM",
    "IC50": 0.63
  },
  {
    "molecule": "CCO[C@H]1CN2CC[C@H]1C2 (relative stereo) [E13, oxalate salt]",
    "measure-unit": "µM",
    "IC50": 0.51
  },
  {
    "molecule": "COC(=O)[C@@H]1C[C@H]2CCCCN(C2)C1 (relative stereo)",
    "measure-unit": "µM",
    "IC50": 0.153
  },
  {
    "molecule": "COC[C@@H]1C[C@H]2CCCN(C2)C1 (relative stereo) [E9, oxalate salt]",
    "measure-unit": "µM",
    "IC50": 1.3
  },
  {
    "molecule": "CCOC(=O)[C@@H]1C[C@H]2CCCN(C2)C1 (relative stereo) [E25, oxalate salt]",
    "measure-unit": "µM",
    "IC50": 0.065
  },
  {
    "molecule": "CCCO[C@@H]1C[C@H]2CCCN(C2)C1 (relative stereo) [E23, oxalate salt]",
    "measure-unit": "µM",
    "IC50": 0.16
  }
]

* * *

Catalogue of IC50 values
molecular target: muscarinic receptors (rat cerebral cortex); experiment: Radio ligand binding: displacement of the muscarinic agonist 3H-OXO-M (3H-Oxotremorine-M); set-up: species or system Hooded Lister rats; conditions: 2 nM 3H-OXO-M, 2 mM magnesium chloride, 37° C., 30 min
Structures can show the parent of a compound that is named as a salt.

[
  {
    "compound": "CC(=O)O[C@H]1CN2CCC[C@H]1C2 (relative stereo) [E6, acetate hydrochloride]",
    "measure-unit": "nM",
    "IC50": 82
  },
  {
    "compound": "COC(=O)[C@H]1CN2CC[C@H]1C2 (relative stereo) [E16, oxalate salt]",
    "measure-unit": "nM",
    "IC50": 190
  },
  {
    "compound": "C#CCOC(=O)[C@@H]1C[C@H]2CCCN(C2)C1 (relative stereo) [E10]",
    "measure-unit": "nM",
    "IC50": 40
  },
  {
    "compound": "CN(C)C(=O)O[C@@H]1C[C@H]2CCCN(C2)C1 (relative stereo) [E24, hydrochloride]",
    "measure-unit": "nM",
    "IC50": 255
  },
  {
    "compound": "CCC(=O)O[C@H]1CN2CCC[C@H]1C2 (relative stereo) [E17, hydrochloride]",
    "measure-unit": "nM",
    "IC50": 410
  },
  {
    "compound": "COC(=O)[C@H]1CN2CCC[C@H]1C2 (relative stereo) [E7, hydrochloride]",
    "measure-unit": "nM",
    "IC50": 510
  },
  {
    "compound": "CO[C@@H]1C[C@H]2CCCN(C2)C1 (relative stereo) [E22, oxalate salt]",
    "measure-unit": "nM",
    "IC50": 5000
  },
  {
    "compound": "CCC(=O)O[C@@H]1C[C@H]2CCCN(C2)C1 (relative stereo) [E21, hydrochloride salt]",
    "measure-unit": "nM",
    "IC50": 367
  },
  {
    "compound": "COC(=O)[C@@H]1C[C@H]2CCN(C2)C1 (relative stereo) [E15, hydrochloride]",
    "measure-unit": "nM",
    "IC50": 80
  },
  {
    "compound": "COC(=O)[C@@H]1C[C@H]2CCCN(C2)C1 (relative stereo) [E4]",
    "measure-unit": "nM",
    "IC50": 81
  },
  {
    "compound": "CC(=O)O[C@H]1CN2CC[C@H]1C2 (relative stereo) [E12, acetate oxalate salt]",
    "measure-unit": "nM",
    "IC50": 175
  },
  {
    "compound": "COC(=O)C1=CC2CCCN(C1)C2 (racemic) [E8, hydrochloride]",
    "measure-unit": "nM",
    "IC50": 118
  },
  {
    "compound": "CNC(=O)O[C@@H]1C[C@H]2CCCN(C2)C1 (relative stereo) [E11, hydrochloride salt]",
    "measure-unit": "nM",
    "IC50": 460
  },
  {
    "compound": "CNC(=O)O[C@H]1CN2CCC[C@H]1C2 (relative stereo) [E20, oxalate salt]",
    "measure-unit": "nM",
    "IC50": 1900
  },
  {
    "compound": "CC(=O)O[C@@H]1C[C@H]2CCCN(C2)C1 (relative stereo) [E1, acetate hydrochloride]",
    "measure-unit": "nM",
    "IC50": 81
  },
  {
    "compound": "NC(=O)O[C@@H]1C[C@H]2CCCN(C2)C1 (relative stereo) [E3, hydrochloride]",
    "measure-unit": "nM",
    "IC50": 103
  },
  {
    "compound": "CCO[C@@H]1C[C@H]2CCCN(C2)C1 (relative stereo) [E2]",
    "measure-unit": "nM",
    "IC50": 210
  }
]

These measurements were taken from patent US4870081A.
